Test system: K-562R
run description: Cytotoxicity against human K562R cells assessed as decrease in cell growth after 72 hrs by resazurin dye-based fluorimetric method
Format: functional
IC50 less than 2 nM is TRUE; IC50 greater than or equal to 2 nM is FALSE.

For C=C(c1ccc(OC)c(O)c1)c1cc(C)nc2ccccc12 , is the recorded IC50 below the cut-off of 2 nM?
FALSE

Does this compound meet the criterion IC50 < 2 nM? C=C(c1ccc(OC)c(O)c1)c1cc(OC)c(OC)c(OC)c1
TRUE

API: query returns whether the compound falls strictly under 2 nM in IC50. Query: COc1ccc(C(=CC#N)c2cc(C)nc3ccccc23)cc1
FALSE

Record C=C(c1ccc(OC)c(F)c1)c1cc(C)nc2ccccc12 : is its IC50 strictly below 2 nM?
FALSE

Lab log: compare recorded IC50 with 2 nM; is it strictly lower for C=C(c1ccc(OC)cc1)c1cc(C#N)nc2ccccc12 ?
TRUE

Does C=C(c1ccc(OC)cc1)c1cc(C)nc2ccccc12 have IC50 strictly under 2 nM?
TRUE

Is IC50 strictly under 2 nM for the entry C=C(c1ccc(OC)cc1)c1cc(C(=O)OC)nc2ccccc12 ?
FALSE

Answer whether the compound COc1ccc(C(=O)c2cc(C)nc3ccccc23)cc1 has IC50 strictly less than 2 nM
FALSE
